Reference source for all entries: patent US12606552B2

# PROTOCOL: Pharmacokinetic studies of compounds in mice
# Type: in vivo
# EXPERIMENTAL PARAMETERS: male mice, intragastric administration 10 mg/kg, plasma
# Experimental: Activity Assay Example 3: Pharmacokinetic Studies of Compounds in Mice In this test, 3 male mice were selected and divided into 1 group, 3 mice/group. All animals were fasted overnight before administration. The intragastric administration dose was 10 mg/kg, and the administration volume was 10 mL/kg. 2.2 Preparation of Drug Solution According to the animal body weight combined with the administration dose, the amount of the required drug solution was calculated. […]
Measured eAUC0.5-2 h accompanies every entry in the list below.
VALUE KIND: eAUC0.5-2 h (ng·h/mL)

| COMPOUND | EXPERIMENTAL RESULT |
| --- | --- |
| Cc1ncsc1-c1ccc(CNC(=O)[C@@H]2C[C@@H](O)CN2C(=O)[C@@H](NC(=O)COCCCCOc2ccc(-c3ccc(N4C(=S)N(c5ccc(C#N)c(C(F)(F)F)c5F)C(=O)C4(C)C)cn3)cc2Cl)C(C)(C)C)cc1 [Compound A83] | 574 |
| Cc1ncsc1-c1ccc(CNC(=O)[C@@H]2C[C@@H](O)CN2C(=O)[C@@H](NC(=O)COCCCCOc2ccc(-c3ccc(N4C(=S)N(c5ccc(C#N)c(C(F)(F)F)c5F)C(=O)C4(C)C)cn3)cc2C(F)(F)F)C(C)(C)C)cc1 [Compound A84] | 774 |
| Cc1ncsc1-c1ccc(CNC(=O)[C@@H]2C[C@@H](O)CN2C(=O)[C@@H](NC(=O)COCCCCOc2ccc(-c3ncc(N4C(=S)N(c5ccc(C#N)c(C(F)(F)F)c5F)C(=O)C4(C)C)cc3C(F)(F)F)c(F)c2)C(C)(C)C)cc1 [Compound A95] | 1234 |
| Cc1ncsc1-c1ccc(CNC(=O)[C@@H]2C[C@@H](O)CN2C(=O)[C@@H](N(C)C(=O)COCCCCOc2ccc(-c3ccc(N4C(=S)N(c5ccc(C#N)c(C(F)(F)F)c5F)C(=O)C4(C)C)cn3)cc2)C(C)(C)C)cc1 [Compound A66] | 525 |

###

# TARGET DESC: AR (Homo sapiens, UniProt P10275, T878A)
# Sequence (P10275 whole entry T878A): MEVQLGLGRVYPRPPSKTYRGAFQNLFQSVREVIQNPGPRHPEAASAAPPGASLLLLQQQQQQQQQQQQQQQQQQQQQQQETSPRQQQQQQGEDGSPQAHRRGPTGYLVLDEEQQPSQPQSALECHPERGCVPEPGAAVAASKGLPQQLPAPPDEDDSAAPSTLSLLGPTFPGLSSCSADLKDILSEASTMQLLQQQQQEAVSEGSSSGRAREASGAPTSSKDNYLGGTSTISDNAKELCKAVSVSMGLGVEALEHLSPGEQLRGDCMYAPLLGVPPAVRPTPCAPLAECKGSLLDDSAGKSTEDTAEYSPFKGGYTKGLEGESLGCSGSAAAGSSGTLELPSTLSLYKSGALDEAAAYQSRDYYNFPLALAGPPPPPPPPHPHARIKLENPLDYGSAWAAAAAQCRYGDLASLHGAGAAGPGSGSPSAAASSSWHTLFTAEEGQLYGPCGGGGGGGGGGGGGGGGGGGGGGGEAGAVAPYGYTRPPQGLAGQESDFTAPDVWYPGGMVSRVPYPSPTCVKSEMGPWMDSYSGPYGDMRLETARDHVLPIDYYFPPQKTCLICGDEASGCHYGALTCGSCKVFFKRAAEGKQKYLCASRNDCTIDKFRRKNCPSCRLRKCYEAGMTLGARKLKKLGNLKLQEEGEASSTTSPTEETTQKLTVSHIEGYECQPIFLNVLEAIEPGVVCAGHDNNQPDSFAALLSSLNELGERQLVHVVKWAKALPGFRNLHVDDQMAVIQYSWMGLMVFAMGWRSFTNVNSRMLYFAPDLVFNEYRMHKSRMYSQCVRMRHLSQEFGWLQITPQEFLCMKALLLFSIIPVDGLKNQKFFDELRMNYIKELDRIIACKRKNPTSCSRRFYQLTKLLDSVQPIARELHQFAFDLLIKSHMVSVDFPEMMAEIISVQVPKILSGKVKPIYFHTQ
# PROTOCOL: Effects of compounds on AR expression in LNCaP cells (ELISA, DC50)
# Assay type: cell-based
# Parameters: Measurement of the Effects of Drugs on the Expression of AR in Cells by ELISA Method; endogenous in cells; host or cells: LNCaP
# EXPERIMENTAL PARAMETERS: 24 hours of drug treatment, AR by ELISA

| COMPOUND | UNITS SYMBOL | BOUND TYPE | DC50 |
| --- | --- | --- | --- |
| Cc1ncsc1-c1ccc(CNC(=O)[C@@H]2C[C@@H](O)CN2C(=O)[C@@H](NC(=O)COc2ccc(-c3ccc(N4C(=S)N(c5ccc(C#N)c(C(F)(F)F)c5F)C(=O)C4(C)C)cn3)cc2)C(C)(C)C)cc1 | nM | > | 2000 |
| Cc1ncsc1-c1ccc(CNC(=O)[C@@H]2C[C@@H](O)CN2C(=O)[C@@H](NC(=O)CCCN2CC(Oc3ccc(-c4ccc(N5C(=S)N(c6ccc(C#N)c(C(F)(F)F)c6F)C(=O)C5(C)C)cn4)cc3)C2)C(C)(C)C)cc1 | nM | = | 233 |
| CC(C)(C)[C@H](NC(=O)COCCCCOc1ccc(-c2ncc(N3C(=S)N(c4ccc(C#N)c(C(F)(F)F)c4F)C(=O)C3(C)C)cc2F)c(C(F)(F)F)c1)C(=O)N1C[C@H](O)C[C@H]1c1nc(-c2cncnc2)c[nH]1 | nM | = | 24.8 |
| Cc1ncsc1-c1ccc(CNC(=O)[C@@H]2C[C@@H](O)CN2C(=O)[C@@H](NC(=O)COCCOCCCOc2ncc(N3C(=S)N(c4ccc(C#N)c(C(F)(F)F)c4F)C(=O)C3(C)C)cc2F)C(C)(C)C)cc1 | nM | = | 119 |
| Cn1cncc1-c1c[nH]c([C@@H]2C[C@@H](O)CN2C(=O)[C@@H](NC(=O)COCCCCOc2ccc(-c3ncc(N4C(=S)N(c5ccc(C#N)c(C(F)(F)F)c5F)C(=O)C4(C)C)cc3F)c(C(F)(F)F)c2)C(C)(C)C)n1 | nM | = | 194 |
| Cc1ncoc1-c1c[nH]c([C@@H]2C[C@@H](O)CN2C(=O)[C@@H](NC(=O)COCCCCOc2ccc(-c3ccc(N4C(=S)N(c5ccc(C#N)c(C(F)(F)F)c5F)C(=O)C4(C)C)cn3)cc2)C(C)(C)C)n1 | nM | = | 92.1 |
| Cc1ncsc1-c1ccc([C@H](C)NC(=O)[C@@H]2C[C@@H](O)CN2C(=O)[C@@H](NC(=O)COCCCCOc2c(F)cc(-c3ncc(N4C(=S)N(c5ccc(C#N)c(C(F)(F)F)c5F)C(=O)C4(C)C)cc3F)cc2F)C(C)(C)C)cc1 | nM | = | 188 |
| Cc1cc(C(C(=O)N2C[C@H](O)C[C@H]2C(=O)N[C@@H](CC(=O)NCCCCCCOc2ccc(-c3ncc(N4C(=S)N(c5ccc(C#N)c(C(F)(F)F)c5F)C(=O)C4(C)C)cc3F)cc2F)c2ccc(-c3scnc3C)cc2)C(C)C)on1 (stereo partly shown) | nM | = | 253 |
| Cc1ncsc1-c1ccc(CNC(=O)[C@@H]2C[C@@H](O)CN2C(=O)[C@@H](NC(=O)COCCCCOc2ccc(-c3ccc(N4C(=S)N(c5ccc(C#N)c(C(F)(F)F)c5F)C(=O)C4(C)C)cn3)cc2Cl)C(C)(C)C)cc1 | nM | = | 87.8 |
| CC(C)(C)[C@H](NC(=O)COCCOc1ccc(-c2ncc(N3C(=S)N(c4ccc(C#N)c(C(F)(F)F)c4F)C(=O)C3(C)C)cc2F)cc1F)C(=O)N1C[C@H](O)C[C@H]1C(=O)NCc1ccc(C(N)=O)cc1 | nM | = | 67.9 |
| Cc1ncsc1-c1ccc(CNC(=O)[C@@H]2C[C@@H](O)CN2C(=O)[C@@H](NC(=O)COCCOCCOc2ccc(-c3ccc(N4C(=S)N(c5ccc(C#N)c(C(F)(F)F)c5F)C(=O)C4(C)C)cn3)cc2F)C(C)(C)C)cc1 | nM | = | 33 |
| Cc1ncsc1-c1ccc(CNC(=O)[C@@H]2C[C@@H](O)CN2C(=O)[C@@H](NC(=O)COCCCCOc2c(F)cc(-c3ncc(N4C(=S)N(c5ccc(C#N)c(C(F)(F)F)c5F)C(=O)C4(C)C)cc3F)cc2F)C(C)(C)C)cc1 | nM | = | 114 |
| COc1c(C#N)ccc(N2C(=O)C(C)(C)N(c3cnc(-c4ccc(OCCCCOCC(=O)N[C@H](C(=O)N5C[C@H](O)C[C@H]5C(=O)NCc5ccc(-c6scnc6C)cc5)C(C)(C)C)c(F)c4)c(F)c3)C2=S)c1F | nM | = | 83.1 |
| Cc1ncsc1-c1ccc(CNC(=O)[C@@H]2C[C@@H](O)CN2C(=O)[C@@H](NC(=O)COCC(F)(F)CCOc2ccc(-c3ncc(N4C(=S)N(c5ccc(C#N)c(C(F)(F)F)c5F)C(=O)C4(C)C)cc3F)cc2F)C(C)(C)C)cc1 | nM | = | 186 |
| Cc1cc(C(C(=O)N2C[C@H](O)C[C@H]2C(=O)N[C@@H](CC(=O)N2CCC(Oc3ccc(-c4ncc(N5C(=S)N(c6ccc(C#N)c(C(F)(F)F)c6F)C(=O)C5(C)C)cc4F)c(C(F)(F)F)c3)CC2)c2ccc(-c3scnc3C)cc2)C(C)C)on1 (stereo partly shown) | nM | = | 151 |
| Cc1ncsc1-c1ccc(CNC(=O)[C@@H]2C[C@@H](O)CN2C(=O)[C@@H](NC(=O)CCCCCNC(=O)c2ccc(-c3ccc(N4C(=S)N(c5ccc(C#N)c(C(F)(F)F)c5F)C(=O)C4(C)C)cn3)cc2)C(C)(C)C)cc1 | nM | = | 149 |
